target: Mcl-1 protein (UniProtKB primary accession number: Q07820) (Homo sapiens, UniProt Q07820); assay: Inhibition of Mcl-1 by fluorescence polarisation, Method 1; assay type: binding; settings: fluorescence polarisation test; Method 2 values are underlined in the patent (underlining not visible here); read-out: IC50 (M) Mcl-1 FP
Sequence (Q07820 whole entry): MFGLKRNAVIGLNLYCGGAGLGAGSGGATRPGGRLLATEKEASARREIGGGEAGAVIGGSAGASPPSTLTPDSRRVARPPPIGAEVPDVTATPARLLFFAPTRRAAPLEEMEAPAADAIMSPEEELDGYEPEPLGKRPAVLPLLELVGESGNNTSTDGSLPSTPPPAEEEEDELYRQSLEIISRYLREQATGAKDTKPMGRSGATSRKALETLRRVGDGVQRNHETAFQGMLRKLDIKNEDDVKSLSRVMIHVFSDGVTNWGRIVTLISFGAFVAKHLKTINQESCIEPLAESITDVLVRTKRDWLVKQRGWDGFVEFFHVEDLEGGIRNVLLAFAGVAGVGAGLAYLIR
value kind: IC50 (M)

molecule	value kind	measured
Cc1c(-c2c(-c3ccc(F)cc3)sc3ncnc(OC(Cc4ccccc4OCc4ccnn4-c4ccccc4)C(=O)O)c23)ccc(OCCN2CCN(C)CC2)c1Cl (stereo not shown)	IC50	1.6e-08
Cc1c(-c2c(-c3ccco3)sc3ncnc(O[C@H](Cc4ccccc4OCc4cc(C5CC5)nn4C)C(=O)O)c23)ccc(OCCN2CCN(C)CC2)c1Cl	IC50	2.4e-08
Cc1c(-c2c(-c3ccc(F)cc3)sc3ncnc(OC(Cc4ccccc4OCc4ccn(CC5CCCCC5)n4)C(=O)O)c23)ccc(OCCN2CCN(C)CC2)c1Cl (stereo not shown)	IC50	3.7e-08
Cc1c(-c2c(-c3ccc(F)o3)sc3ncnc(OC(Cc4ccccc4OCc4ccnn4C4CCCC4)C(=O)O)c23)ccc(OCCN2CCN(C)CC2)c1Cl (stereo not shown)	IC50	5.7e-09
Cc1c(-c2c(-c3ccc(Cl)o3)sc3ncnc(OC(Cc4ccccc4OCc4ccnc(N5CCOCC5)n4)C(=O)O)c23)ccc(OCCN2CCN(C)CC2)c1Cl (stereo not shown)	IC50	1.4e-08
Cc1c(-c2c(-c3ccco3)sc3ncnc(OC(Cc4ccccc4OCc4ccnc(OCC5CC5)n4)C(=O)O)c23)ccc(OCCN2CCN(C)CC2)c1Cl (stereo not shown)	IC50	4.8e-09
COc1c(F)cccc1CC(Oc1ncnc2sc(-c3ccco3)c(-c3ccc(OCCN4CCN(C)CC4)c(Cl)c3C)c12)C(=O)O (stereo not shown)	IC50	1.4e-08
Cc1c(-c2c(-c3ccco3)sc3ncnc(OC(Cc4cccc(F)c4)C(=O)O)c23)ccc(OCCN2CCN(C)CC2)c1Cl (stereo not shown)	IC50	2.1e-08
COCCOc1ccccc1CC(Oc1ncnc2sc(-c3ccc(F)cc3)c(-c3ccc(OCCN4CCN(C)CC4)c(Cl)c3C)c12)C(=O)O (stereo not shown)	IC50	7.5e-09
COc1ccccc1C[C@@H](Oc1ncnc2sc(-c3ccco3)c(-c3ccc(OCCN4CCN(C)CC4)c(F)c3C)c12)C(=O)O (single isomer, unassigned) [Example 333]	IC50	7.9e-07
Cc1c(-c2c(-c3ccc(F)cc3)sc3ncnc(OC(Cc4ccccc4OCc4ccnc(N5CCOCC5)n4)C(=O)O)c23)ccc(OCCN2CCN(C)CC2)c1Cl (stereo not shown)	IC50	5.6e-09
Cc1c(-c2c(-c3ccco3)sc3ncnc(OC(Cc4ccccc4OC4CCCc5cccnc54)C(=O)O)c23)ccc(OCCN2CCN(C)CC2)c1Cl (stereo not shown)	IC50	1.8e-08
Cc1c(-c2c(-c3ccc(F)o3)sc3ncnc(OC(Cc4ccccc4OCc4ccnc(OCC(F)(F)F)n4)C(=O)O)c23)ccc(OCCN(C)C)c1Cl (stereo not shown)	IC50	9.1e-09

----------
test system: H929 multiple myeloma tumour line; experiment: In vitro cytotoxicity, Microculture Tetrazolium Assay; type: cell-based; conditions: Homo sapiens, NCI-H929, 48 h, H929 cells, 48 hours exposure, MTT; read-out: IC50 (μM) MTT H929
value kind: log10(IC50) (log10 of the value in µM)

compound	log10(IC50)
COc1cnccc1-c1nccc(COc2ccccc2CC(Oc2ncnc3sc(-c4ccc(F)cc4)c(-c4ccc(OCCN5CCN(C)CC5)c(Cl)c4C)c23)C(=O)O)n1 (stereo not drawn)	-2.30
CC#Cc1sc2ncnc(OC(Cc3ccccc3OC)C(=O)O)c2c1-c1cc(F)c(OCCN2CCN(C)CC2)c(Cl)c1C (stereo not drawn)	0.01
COCCOCCOc1ccccc1CC(Oc1ncnc2sc(-c3ccc(F)cc3)c(-c3ccc(OCCN4CCN(C)CC4)c(Cl)c3C)c12)C(=O)O (stereo not drawn)	-0.60
Cc1c(-c2c(-c3ccc(F)cc3)sc3ncnc(OC(Cc4ccccc4OCc4ccnc(N5CCOCC5)n4)C(=O)O)c23)ccc(OCCN(C)C)c1Cl (stereo not drawn)	-1.16
COc1ccccc1CC(Oc1ncnc2sc(-c3ccco3)c(-c3ccc(OCC4CCCN4C)c(Cl)c3C)c12)C(=O)O (stereo not drawn)	0.06
Cc1ccc(-c2nccc(COc3ccccc3CC(Oc3ncnc4sc(-c5ccc(F)cc5)c(-c5ccc(OCCN6CCN(C)CC6)c(Cl)c5C)c34)C(=O)O)n2)cn1 (stereo not drawn)	-2.15

Data origin: patent US9670227B2
